The entries below are paired with their reported chromatographic logD.
test protocol: CHI Log D procedure
Format: physicochemical
experimental setup: pH 7.4, CHI Log D
Give only the figure.

>  <molecule>
CC(=O)N1CCC[C@]12CC=CCCCC1(CCCC=CCCCOC(=O)N3CC[C@@](C(=O)N[C@@H](Cc4ccsc4)C(=O)N[C@@H](Cc4csc5ccccc45)C(=O)N[C@@H](CCC(N)=O)C(=O)N[C@@H](CCCCNC(=O)c4ccc(CN5CCOCC5)cc4)C(N)=O)(C3)NC(=O)[C@H](CC(N)=O)NC(=O)[C@H](Cc3ccccc3)NC(=O)[C@H](C)NC(=O)[C@H](C)NC(=O)[C@H](CC(=O)O)NC(=O)[C@H](CC(=O)O)NC1=O)NC(=O)[C@H](CC(C)(C)C)NC(=O)[C@H](CC(=O)O)NC2=O (some centres unmarked)

>  <chromatographic logD>
1.93

$$$$

Would you kindly look at the next entry?
Request: Which chromatographic logD value belongs to CC[C@H](C)[C@@H]1NC(=O)[C@H](CC(=O)O)NC(=O)[C@]2(CC=CCCCC3(CCCC=CCCCCCC[C@@](C)(C(=O)N[C@@H](Cc4ccccc4)C(=O)N[C@@H](Cc4csc5ccccc45)C(=O)N[C@@H](CCC(N)=O)C(N)=O)NC(=O)[C@H](CCC(N)=O)NC(=O)[C@H](Cc4ccccc4)NC(=O)[C@H](C)NC(=O)[C@H](C)NC(=O)[C@H](CCC(=O)O)NC(=O)[C@H](CC(=O)O)NC3=O)NC1=O)CCCN2C(C)=O (some centres unmarked) ?
Response: 2.39
